Biological target: 5-HT2A (Homo sapiens)
Sequence (P28223 whole entry): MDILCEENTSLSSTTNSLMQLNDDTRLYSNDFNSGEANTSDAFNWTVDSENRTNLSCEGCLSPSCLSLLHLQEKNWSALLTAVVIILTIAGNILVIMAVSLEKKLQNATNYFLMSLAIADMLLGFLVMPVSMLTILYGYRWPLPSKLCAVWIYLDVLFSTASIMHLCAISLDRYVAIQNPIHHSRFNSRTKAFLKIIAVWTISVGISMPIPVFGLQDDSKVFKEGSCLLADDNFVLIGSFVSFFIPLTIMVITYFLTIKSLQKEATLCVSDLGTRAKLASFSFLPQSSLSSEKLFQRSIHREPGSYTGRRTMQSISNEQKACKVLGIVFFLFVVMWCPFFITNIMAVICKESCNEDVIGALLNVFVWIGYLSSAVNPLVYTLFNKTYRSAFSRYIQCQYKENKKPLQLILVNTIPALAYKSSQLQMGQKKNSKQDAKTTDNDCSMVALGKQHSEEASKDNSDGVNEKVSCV
Assay: Serotonin 5-HT2A in vitro radioligand binding competition assay ([3H]-DOI)
Set-up: Epics Therapeutics S.A. (Belgium) FAST-0505B; host or cells: membrane extracts
Settings: 5-HT2A Radioligand Binding Activity, competition with [3H]-DOI, membrane extracts
The compounds listed here are annotated with their IC50.

compound	IC50
CCN(CC)C(=O)[C@@H]1C=C(c2ccccc2OC)CN(C)C1 (single isomer, unassigned) [Compound 7]	10 to 100 nM
CCN(CC)C(=O)[C@@H]1C=C(c2cccc(OC)c2)CN(C)C1 (single isomer, unassigned) [Compound 10]	101 to 1000 nM
CCN(CC)C(=O)[C@@H]1C=C(c2ccccc2OC)CN(C)C1 (single isomer, unassigned) [Compound 8]	101 to 1000 nM

-- ask I have this compound here, CCN(CC)C(=O)[C@@H]1C=C(c2cccc(OC)c2)CN(C)C1 (single isomer, unassigned) [Compound 9] , and I need its recorded IC50.
-- reply 10 to 100 nM

-- ask I have this compound here, CCN(CC)C(=O)[C@@H]1C=C(c2cc(OC)cc(OC)c2)CN(C)C1 (single isomer, unassigned) [Compound 5] , and I need its recorded IC50.
-- reply 101 to 1000 nM

-- ask I have this compound here, CCN(CC)C(=O)[C@@H]1C=C(c2cc(OC)cc(OC)c2)CN(C)C1 (single isomer, unassigned) [Compound 6] , and I need its recorded IC50.
-- reply 1000 to 10000 nM
